Target: T1, ZFP SBS#1460 (synthetic)
T1 chain: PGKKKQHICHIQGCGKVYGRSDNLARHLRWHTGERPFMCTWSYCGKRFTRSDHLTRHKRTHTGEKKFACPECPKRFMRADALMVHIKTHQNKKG
Assay: EMSA
Conditions: tags: MBP fusion
propertyMeasured: Kd (pM)
One number for each entry, in pM.

Problem: Could you share which Kd value was measured for TTGGGGGAG (dsDNA) DNA 1: TTGGGGGAG DNA 2: CTCCCCCAA ?
Result: 7
